Tested on: Candida albicans
Assay: In vivo antifungal activity administered orally against Candida albicans infections in mice.
Assay type: functional
Details: po
Numbered stars: 1 amine (or outer) side, 2 acyl side, 3 side chain; on linkers, the order of the positions; unused ones are H or OH. Bridge positions count the residues as written; N and C are the ends. Square brackets hold non-standard residues; d marks the D form. Peptide text beside a SMILES is read from it. * marks the point of attachment. pTerphenylCO(4''-OnC5H11) = CCCCCOc1ccc(-c2ccc(-c3ccc(C(=O)*)cc3)cc2)cc1; Orn(4R-OH,5R-OH) = O=C([C@H](C[C@@H](O)[C@@H](O)N[*:3])N[*:1])[*:2]; hTyr(3S-OH,4S-OH) = N[C@H](C(=O)O)[C@H](O)[C@@H](O)c1ccc(O)cc1; Benzoyl(4-(4-OctO-Ph)) = CCCCCCCCOc1ccc(-c2ccc(C(=O)*)cc2)cc1; X3 = CC(C)(C)OCCOc1ccc(C#Cc2ccc(-c3ccc(C(=O)*)cc3)cc2)cc1; X17 = CCCCOCCOc1ccc(C#Cc2ccc(-c3ccc(C(=O)*)cc3)cc2)cc1; X1 = O=C(c1ccc(-c2ccc(-c3ccc(-c4ccccc4)cc3)cc2)cc1)*; X20 = CCCCCOc1ccc(C#Cc2ccc(-c3ccc(C(=O)*)cc3)cc2)cc1; X6 = CCCCOCCOc1ccc(-c2ccc(-c3ccc(C(=O)*)cc3)cc2)cc1; X2 = CCCOc1ccc(C#Cc2ccc(-c3ccc(C(=O)*)cc3)cc2)cc1; Pro(3S-OH,4S-Me) = C[C@H]1CN[C@H](C(=O)O)[C@H]1O; Benzoyl(4-octyloxy) = CCCCCCCCOc1ccc(C(=O)*)cc1; X8 = O=C(c1ccc(-c2ccc(C#Cc3ccccc3)cc2)cc1)*; Hyp = O=C(O)[C@@H]1C[C@@H](O)CN1
ED50 strictly less than 10 mg/kg = Satisfied. Otherwise Not satisfied.

compound="CCCCCCCCOc1ccc(C(=O)N[C@H]2C[C@@H](O)[C@@H](O)NC(=O)[C@@H]3[C@@H](O)[C@@H](C)CN3C(=O)[C@H]([C@@H](C)O)NC(=O)[C@H]([C@H](O)[C@@H](O)c3ccc(O)cc3)NC(=O)[C@@H]3C[C@@H](O)CN3C(=O)[C@H]([C@@H](C)O)NC2=O)cc1 [CILOFUNGIN] ({Benzoyl(4-octyloxy)}-[Orn(4R-OH,5R-OH)]T[Hyp][hTyr(3S-OH,4S-OH)]T[Pro(3S-OH,4S-Me)]; lactam 1-C)" study_system="Candida albicans" class_name="Not satisfied"
compound="CCCCOCCOc1ccc(C#Cc2ccc(-c3ccc(C(=O)N[C@H]4C[C@@H](O)[C@@H](O)NC(=O)[C@@H]5[C@@H](O)[C@@H](C)CN5C(=O)[C@H]([C@@H](C)O)NC(=O)[C@H]([C@H](O)[C@@H](O)c5ccc(O)cc5)NC(=O)[C@@H]5C[C@@H](O)CN5C(=O)[C@H]([C@@H](C)O)NC4=O)cc3)cc2)cc1 (X17-[Orn(4R-OH,5R-OH)]T[Hyp][hTyr(3S-OH,4S-OH)]T[Pro(3S-OH,4S-Me)]; lactam 1-C)" study_system="Candida albicans" class_name="Not satisfied"
compound="C[C@@H](O)[C@@H]1NC(=O)[C@H]([C@H](O)[C@@H](O)c2ccc(O)cc2)NC(=O)[C@@H]2C[C@@H](O)CN2C(=O)[C@H]([C@@H](C)O)NC(=O)[C@@H](NC(=O)c2ccc(-c3ccc(-c4ccc(-c5ccccc5)cc4)cc3)cc2)C[C@@H](O)[C@@H](O)NC(=O)[C@@H]2[C@@H](O)[C@@H](C)CN2C1=O (X1-[Orn(4R-OH,5R-OH)]T[Hyp][hTyr(3S-OH,4S-OH)]T[Pro(3S-OH,4S-Me)]; lactam 1-C)" study_system="Candida albicans" class_name="Not satisfied"
compound="CCCCCCCCOc1ccc(-c2ccc(C(=O)N[C@H]3C[C@@H](O)[C@@H](O)NC(=O)[C@@H]4[C@@H](O)[C@@H](C)CN4C(=O)[C@H]([C@@H](C)O)NC(=O)[C@H]([C@H](O)[C@@H](O)c4ccc(O)cc4)NC(=O)[C@@H]4C[C@@H](O)CN4C(=O)[C@H]([C@@H](C)O)NC3=O)cc2)cc1 ({Benzoyl(4-(4-OctO-Ph))}-[Orn(4R-OH,5R-OH)]T[Hyp][hTyr(3S-OH,4S-OH)]T[Pro(3S-OH,4S-Me)]; lactam 1-C)" study_system="Candida albicans" class_name="Not satisfied"
compound="CCCCOCCOc1ccc(-c2ccc(-c3ccc(C(=O)N[C@H]4C[C@@H](O)[C@@H](O)NC(=O)[C@@H]5[C@@H](O)[C@@H](C)CN5C(=O)[C@H]([C@@H](C)O)NC(=O)[C@H]([C@H](O)[C@@H](O)c5ccc(O)cc5)NC(=O)[C@@H]5C[C@@H](O)CN5C(=O)[C@H]([C@@H](C)O)NC4=O)cc3)cc2)cc1 (X6-[Orn(4R-OH,5R-OH)]T[Hyp][hTyr(3S-OH,4S-OH)]T[Pro(3S-OH,4S-Me)]; lactam 1-C)" study_system="Candida albicans" class_name="Not satisfied"
compound="C[C@@H](O)[C@@H]1NC(=O)[C@H]([C@H](O)[C@@H](O)c2ccc(O)cc2)NC(=O)[C@@H]2C[C@@H](O)CN2C(=O)[C@H]([C@@H](C)O)NC(=O)[C@@H](NC(=O)c2ccc(-c3ccc(C#Cc4ccccc4)cc3)cc2)C[C@@H](O)[C@@H](O)NC(=O)[C@@H]2[C@@H](O)[C@@H](C)CN2C1=O (X8-[Orn(4R-OH,5R-OH)]T[Hyp][hTyr(3S-OH,4S-OH)]T[Pro(3S-OH,4S-Me)]; lactam 1-C)" study_system="Candida albicans" class_name="Not satisfied"
compound="CCCCCOc1ccc(C#Cc2ccc(-c3ccc(C(=O)N[C@H]4C[C@@H](O)[C@@H](O)NC(=O)[C@@H]5[C@@H](O)[C@@H](C)CN5C(=O)[C@H]([C@@H](C)O)NC(=O)[C@H]([C@H](O)[C@@H](O)c5ccc(O)cc5)NC(=O)[C@@H]5C[C@@H](O)CN5C(=O)[C@H]([C@@H](C)O)NC4=O)cc3)cc2)cc1 (X20-[Orn(4R-OH,5R-OH)]T[Hyp][hTyr(3S-OH,4S-OH)]T[Pro(3S-OH,4S-Me)]; lactam 1-C)" study_system="Candida albicans" class_name=Satisfied
compound="C[C@@H](O)[C@@H]1NC(=O)[C@H]([C@H](O)[C@@H](O)c2ccc(O)cc2)NC(=O)[C@@H]2C[C@@H](O)CN2C(=O)[C@H]([C@@H](C)O)NC(=O)[C@@H](NC(=O)c2ccc(-c3ccc(C#Cc4ccc(OCCOC(C)(C)C)cc4)cc3)cc2)C[C@@H](O)[C@@H](O)NC(=O)[C@@H]2[C@@H](O)[C@@H](C)CN2C1=O (X3-[Orn(4R-OH,5R-OH)]T[Hyp][hTyr(3S-OH,4S-OH)]T[Pro(3S-OH,4S-Me)]; lactam 1-C)" study_system="Candida albicans" class_name=Satisfied
compound="CCCOc1ccc(C#Cc2ccc(-c3ccc(C(=O)N[C@H]4C[C@@H](O)[C@@H](O)NC(=O)[C@@H]5[C@@H](O)[C@@H](C)CN5C(=O)[C@H]([C@@H](C)O)NC(=O)[C@H]([C@H](O)[C@@H](O)c5ccc(O)cc5)NC(=O)[C@@H]5C[C@@H](O)CN5C(=O)[C@H]([C@@H](C)O)NC4=O)cc3)cc2)cc1 (X2-[Orn(4R-OH,5R-OH)]T[Hyp][hTyr(3S-OH,4S-OH)]T[Pro(3S-OH,4S-Me)]; lactam 1-C)" study_system="Candida albicans" class_name=Satisfied
compound="CCCCCOc1ccc(-c2ccc(-c3ccc(C(=O)N[C@H]4C[C@@H](O)[C@@H](O)NC(=O)[C@@H]5[C@@H](O)[C@@H](C)CN5C(=O)[C@H]([C@@H](C)O)NC(=O)[C@H]([C@H](O)[C@@H](O)c5ccc(O)cc5)NC(=O)[C@@H]5C[C@@H](O)CN5C(=O)[C@H]([C@@H](C)O)NC4=O)cc3)cc2)cc1 [ANIDULAFUNGIN] ({pTerphenylCO(4''-OnC5H11)}-[Orn(4R-OH,5R-OH)]T[Hyp][hTyr(3S-OH,4S-OH)]T[Pro(3S-OH,4S-Me)]; lactam 1-C)" study_system="Candida albicans" class_name=Satisfied
